biological target: Metabotropic glutamate receptor 4 (Homo sapiens, UniProt Q14833); assay: Positive allosteric modulation of human mGlu4 receptor expressed in CHO cells coexpressing Gqi5 assessed as potentiation of glutamate-induced calcium mobilization at 30 uM relative to (-)-PHCCC; format: functional, cell-based
Sequence (Q14833 whole entry): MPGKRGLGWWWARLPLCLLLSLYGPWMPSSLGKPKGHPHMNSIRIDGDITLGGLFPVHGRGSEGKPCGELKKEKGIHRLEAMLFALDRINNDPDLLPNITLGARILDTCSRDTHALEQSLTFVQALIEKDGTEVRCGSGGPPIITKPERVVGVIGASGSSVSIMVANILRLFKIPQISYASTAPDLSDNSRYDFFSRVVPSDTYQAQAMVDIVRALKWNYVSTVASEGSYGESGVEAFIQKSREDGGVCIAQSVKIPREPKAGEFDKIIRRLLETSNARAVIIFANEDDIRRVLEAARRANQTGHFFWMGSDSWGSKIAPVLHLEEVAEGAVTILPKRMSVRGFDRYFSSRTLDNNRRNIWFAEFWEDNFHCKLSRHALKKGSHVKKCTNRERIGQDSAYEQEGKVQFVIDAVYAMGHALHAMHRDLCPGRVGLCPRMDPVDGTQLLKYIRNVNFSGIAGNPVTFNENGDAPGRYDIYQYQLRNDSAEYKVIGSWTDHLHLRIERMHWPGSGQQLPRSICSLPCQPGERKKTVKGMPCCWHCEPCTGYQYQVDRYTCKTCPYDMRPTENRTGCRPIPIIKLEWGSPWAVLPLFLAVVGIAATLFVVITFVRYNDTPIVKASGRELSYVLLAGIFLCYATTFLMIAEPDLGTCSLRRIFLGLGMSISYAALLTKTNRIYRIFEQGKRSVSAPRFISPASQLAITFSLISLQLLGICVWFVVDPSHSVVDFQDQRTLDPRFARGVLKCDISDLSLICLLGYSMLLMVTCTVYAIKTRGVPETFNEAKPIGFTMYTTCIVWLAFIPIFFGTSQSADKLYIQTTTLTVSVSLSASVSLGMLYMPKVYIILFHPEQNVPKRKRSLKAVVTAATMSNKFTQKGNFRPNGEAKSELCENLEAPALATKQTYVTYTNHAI
MEASURED ENDPOINT: %max (%)
Just the number please, in %, no unit attached.

[
  {
    "COMPOUND": "CC1c2ccccc2C(=O)N1c1ccc(NC(=O)c2ncccc2N)cc1Cl (stereo not drawn)",
    "ASSAYED TARGET": "Metabotropic glutamate receptor 4 (Homo sapiens, UniProt Q14833)",
    "VALUE UNIT": "%",
    "%max": 76.8
  },
  {
    "COMPOUND": "Nc1cccnc1C(=O)Nc1ccc(N2C(=O)C3CCC2C3)c(Cl)c1 (stereo not drawn)",
    "ASSAYED TARGET": "Metabotropic glutamate receptor 4 (Homo sapiens, UniProt Q14833)",
    "VALUE UNIT": "%",
    "%max": 47.7
  }
]

Moving on to another compound below.
Query the reported %max for Metabotropic glutamate receptor 4 (Homo sapiens, UniProt Q14833); item: Nc1cccnc1C(=O)Nc1ccc(N2CC(c3cccnc3)CC2=O)c(Cl)c1 (stereo not drawn) 92.8

---

experiment: Intrinsic clearance in rat hepatic microsomes; assay type: ADME, Liver; conditions: read-out: CLH
CLint scaled listing for selected molecules.
Just the number please, in mL/min/kg, no unit attached.

[
  {
    "SMILES INPUT": "Nc1cccnc1C(=O)Nc1ccc(N2C(=O)c3ccccc3C2=O)c(Cl)c1",
    "MEASURED ENDPOINT": "CLint scaled",
    "READING": 51
  }
]

Moving on to another molecule below.
Param item = "CCc1cnc(Oc2ccc(NC(=O)c3ncccc3N)cc2Cl)nc1" ; retrieve measured CLint scaled. 46.1

---

clearance listing for selected compounds.
test: Clearance in Sprague-Dawley rat by LC/MS analysis; type: ADME, organism-based; settings: in vivo
Just the number please, in mL/min/kg, no unit attached.

[
  {
    "SMILES INPUT": "CCc1cnc(Oc2ccc(NC(=O)c3ncccc3N)cc2Cl)nc1",
    "clearance / mL/min/kg": 13.7
  }
]

Param item = "Nc1cccnc1C(=O)Nc1ccc(N2C(=O)c3ccccc3C2=O)c(Cl)c1" ; retrieve measured clearance. 3.98
